Value source: patent US8957062B2

Reported values of EC50 for individual entries
- system.name: human GPR119 (Homo sapiens)
- procedure.summary: Measurement of GPR119 signaling (cAMP assay) in cells stably transfected with human GPR119
- Format: cell-based
- stated.conditions: table column; cAMP stimulation, human GPR119; read-out: GPR119 Human EC50
Numeric only. Scale: nM

Solved entries (count: 6):
Prompt: Record request: EC50 value, item CS(=O)(=O)c1ccc(OCC[C@@H]2C[C@@H]2C2CCN(c3nnc(C4CCC4)o3)CC2)nc1
Completion: 39

Prompt: What measured EC50 goes with O=C(c1c(F)cc(OCC[C@@H]2C[C@@H]2C2CCN(C(=O)OCc3ccccc3)CC2)cc1F)C1CC1 ?
Completion: 18

Prompt: Can you look up the measured EC50 of CC(C)(C)COC(=O)N1CCC([C@H]2C[C@H]2CCOc2ccc(S(C)(=O)=O)c(F)c2)CC1 for me?
Completion: 0.4

Prompt: Returns the measured EC50 for the input compound. Input: CC(C)c1noc(N2CCC([C@H]3C[C@H]3CCOc3ccc(CC(=O)N4CCc5nc(C(F)(F)F)sc5C4)c(F)c3)CC2)n1
Completion: 3.5

Prompt: Which measured EC50 value corresponds to CC(C)c1noc(N2CCC([C@H]3C[C@H]3CCOc3ccc(CC(=O)N4CCCC4)c(F)c3)CC2)n1 ?
Completion: 1.2

Prompt: Give the measured EC50 of CC(C)(C)CC(=O)N1CCC([C@H]2C[C@H]2CCOc2ccc(S(C)(=O)=O)cn2)CC1 .
Completion: 16

New cases:
Prompt: So what does the record say about EC50 for CS(=O)(=O)c1ccc(OCC[C@@H]2C[C@@H]2C2CCN(c3noc(C4CCCC4)n3)CC2)nc1 ?
Completion: 11.6

Prompt: What value of EC50 has been reported for the following compound? CS(=O)(=O)c1ccc(OCC[C@@H]2C[C@@H]2C2CCN(c3nc(COCC(F)(F)F)no3)CC2)nc1
Completion: 7.8

Prompt: For the compound CC(C)c1noc(N2CCC([C@H]3C[C@H]3CCOc3ccc(CC(=O)N4CC(n5ccnc5)C4)c(F)c3)CC2)n1 , what EC50 is on record?
Completion: 6.4

====

- system.name: human GPR119 (Homo sapiens)
- Sequence (Q8TDV5 1-308 limits assumed): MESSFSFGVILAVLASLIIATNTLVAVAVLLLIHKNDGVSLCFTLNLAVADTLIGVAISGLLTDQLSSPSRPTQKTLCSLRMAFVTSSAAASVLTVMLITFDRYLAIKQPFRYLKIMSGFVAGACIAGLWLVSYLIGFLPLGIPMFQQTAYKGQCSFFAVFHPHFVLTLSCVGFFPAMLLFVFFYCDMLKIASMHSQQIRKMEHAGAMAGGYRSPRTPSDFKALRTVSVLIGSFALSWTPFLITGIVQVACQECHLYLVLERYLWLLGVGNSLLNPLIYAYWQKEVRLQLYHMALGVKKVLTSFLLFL
- procedure.summary: Measurement of GPR119 signaling (cAMP assay) in cells stably transfected with human GPR119
- Type: cell-based
- stated.conditions: table column; cAMP stimulation, human GPR119; read-out: GPR119 Human EC50
experimental.readout: log10 of EC50 (log10 of the value in nM)
log10 EC50, nM

Prompt: I'd like to know its log10 of EC50. The molecule in question is CS(=O)(=O)c1ccc(OCC[C@@H]2C[C@@H]2C2CCN(C(=O)CC3CCC3)CC2)cc1F
Completion: 1.00

Next:
Prompt: Please report the recorded log10 of EC50 for CC1(OC(=O)N2CCC([C@H]3C[C@H]3CCOc3ccc(S(=O)(=O)C4CC4)c(F)c3)CC2)CC1 .
Completion: 0.00

Prompt: Query: log10 of EC50; subject: CC1(OC(=O)N2CCC([C@H]3C[C@H]3CCOc3ccc(S(C)(=O)=O)cn3)CC2)CC1
Completion: 0.62
